- procedure summary: Hemolytic activity in mouse RBC at 7.8 ug/ml after 1 hr relative to control
- Format: ADME, cell-based, Erythrocyte
- assay conditions: mouse red blood cells (erythrocytes), read-out: Activity
property name: hemolysis at 1 h, 7.8 ug/ml (%)
Numbers only, in %.

The following compounds have reported results that may help.
1) CCCCCCCCNCC(O)(Cn1cncn1)c1ccc(F)cc1F (stereo unspecified)
0
2) CCCCCCCCCCNCC(O)(Cn1cncn1)c1ccc(F)cc1F (stereo unspecified)
8
3) CCCCCCCCCCCCCCCCNCC(O)(Cn1cncn1)c1ccc(F)cc1F (stereo unspecified)
4

For each of the items listed, what is its hemolysis at 1 h, 7.8 ug/ml?
1. CCCCCCCCCCCCNCC(O)(Cn1cncn1)c1ccc(F)cc1F (stereo unspecified)
2. C[C@@H](c1ncncc1F)[C@](O)(Cn1cncn1)c1ccc(F)cc1F
3. CCCCCCCCCCCCCCNCC(O)(Cn1cncn1)c1ccc(F)cc1F (stereo unspecified)

[21, 11, 17]
